# measured-on: Follistatin-related protein 3 (Homo sapiens) (UniProt O95633)
# Sequence (O95633 whole entry, looked up): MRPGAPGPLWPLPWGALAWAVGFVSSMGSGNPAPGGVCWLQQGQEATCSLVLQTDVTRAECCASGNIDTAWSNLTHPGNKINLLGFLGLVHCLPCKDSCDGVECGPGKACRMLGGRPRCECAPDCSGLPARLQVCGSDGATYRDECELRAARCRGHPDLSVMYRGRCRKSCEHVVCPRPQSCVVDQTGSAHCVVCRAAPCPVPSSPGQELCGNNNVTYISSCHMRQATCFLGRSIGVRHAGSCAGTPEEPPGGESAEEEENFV
# assay-details: FSTL3 binders on small-molecule microarrays, primary screen, biochemical, small-molecule microarray, 635 nm fluorescence (AID 1105);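 also: score merges emission near 667 nm and signal to noise per printed spot across three slides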
# test-conditions: FSTL3 binding, higher = more signal
Threshold check on composite z-score: at or above -0.2 gives label 1, strictly below gives label 0.

compound: COC(=O)C1(CC(C)C)C=C2C(=C(C(C)C)C(=O)C2C)CN1 (configuration not stated)
measured-on: Follistatin-related protein 3 (Homo sapiens) (UniProt O95633)
label-value: label 0
--
compound: COc1cccc(OC)c1C(=O)O[C@H]1[C@@H]2OC(=O)[C@H](Cc3cccc(Br)c3)C/C=C/C[C@@H](Cc3cccc(Br)c3)C(=O)O[C@H]2[C@@H](OC)O[C@@H]1CO
measured-on: Follistatin-related protein 3 (Homo sapiens) (UniProt O95633)
label-value: label 1
--
compound: C=CC(CO)NC(=O)OCC1c2ccccc2-c2ccccc21 (configuration not stated)
measured-on: Follistatin-related protein 3 (Homo sapiens) (UniProt O95633)
label-value: label 1
--
compound: COC(=O)[C@H](Cc1ccc(O)cc1)N1CC2=CCCC=C[C@@H]2[C@H]1[C@H](O)Cc1ccccc1
measured-on: Follistatin-related protein 3 (Homo sapiens) (UniProt O95633)
label-value: label 1
--
compound: CC(C)C[C@H]1NC(=O)[C@@]23C(=O)N[C@@H](Cc4ccccc4)C2[C@H](C)[C@@]2(C)O[C@H]2C3/C=C/C/C=C\CNC(=O)[C@@H]2CCCN2C1=O (some centres not stated)
measured-on: Follistatin-related protein 3 (Homo sapiens) (UniProt O95633)
label-value: label 1
--
compound: COC(=O)[C@@]1(CCC(=O)OC(C)(C)C)N=C(c2ccc(OCCCO)cc2)O[C@H]1c1ccccc1CN=[N+]=[N-]
measured-on: Follistatin-related protein 3 (Homo sapiens) (UniProt O95633)
label-value: label 1
--
compound: [N-]=[N+]=NCc1ccccc1C[C@@]1(C(=O)O)N=C(c2ccc(OCCCO)cc2)O[C@@H]1c1ccccc1CN=[N+]=[N-]
measured-on: Follistatin-related protein 3 (Homo sapiens) (UniProt O95633)
label-value: label 1
--
compound: CC#CCO[Si](C#CCCCCCC)(C(C)C)C(C)C
measured-on: Follistatin-related protein 3 (Homo sapiens) (UniProt O95633)
label-value: label 0
--
compound: C=C(CCCC)C(=O)CC[C@H](OC(=O)c1cccnc1)c1ccc(CO)o1
measured-on: Follistatin-related protein 3 (Homo sapiens) (UniProt O95633)
label-value: label 1
--
compound: COCCOC(=O)N1C(=O)[C@@]2(c3ccccc31)[C@H](C(N)=O)[C@H]1C(=O)O[C@H](c3ccccc3)[C@H](c3ccccc3)N1[C@@H]2c1ccc(OCCO)cc1
measured-on: Follistatin-related protein 3 (Homo sapiens) (UniProt O95633)
label-value: label 1
--
compound: Cc1ccc(F)cc1S(=O)(=O)N[C@@H]1CCN(Cc2ccc3c(c2)OCO3)C1
measured-on: Follistatin-related protein 3 (Homo sapiens) (UniProt O95633)
label-value: label 0
--
compound: CN(C)CCCNC(=O)[C@@H]1c2ccccc2C(=O)N(C2Cc3ccccc3C2)[C@H]1c1ccc(CO)cc1
measured-on: Follistatin-related protein 3 (Homo sapiens) (UniProt O95633)
label-value: label 1
--
compound: CCCCC=C[C@@H](NC(=O)c1ccc(C(F)(F)F)cc1)c1ccccc1
measured-on: Follistatin-related protein 3 (Homo sapiens) (UniProt O95633)
label-value: label 0
--
compound: NCCCC[C@@H]1NC(=O)[C@H]2C[C@@H](C(=O)O)[C@@H](c3cccc(OCCO)c3)N2C1=O
measured-on: Follistatin-related protein 3 (Homo sapiens) (UniProt O95633)
label-value: label 1
--
compound: COC(=O)C1=CC(CCCO)=CC(c2ccc(CN3CCCC3)cc2)N(Cc2sc3ccccc3c2Cl)C=C1C(=O)OC (configuration not stated)
measured-on: Follistatin-related protein 3 (Homo sapiens) (UniProt O95633)
label-value: label 1
--
compound: COC(=O)c1ccc([C@H](NC(=O)c2ccccc2)[C@]2(C)C[C@H]2C2CCCCC2)cc1
measured-on: Follistatin-related protein 3 (Homo sapiens) (UniProt O95633)
label-value: label 1
--
compound: C=CCC(OC(C)=O)[C@@H]1[C@@H](N(Cc2cc3ccccc3o2)C(=O)Cc2ccc(OC)cc2)c2cc(OCCCO)ccc2N1C(=O)Cc1ccc2ccccc2c1 (some centres not stated)
measured-on: Follistatin-related protein 3 (Homo sapiens) (UniProt O95633)
label-value: label 0
--
compound: CC(C)CNC(=O)[C@@H]1c2ccccc2C(=O)N(Cc2ccccc2)[C@H]1c1ccc(CO)cc1
measured-on: Follistatin-related protein 3 (Homo sapiens) (UniProt O95633)
label-value: label 0
--
compound: CO[C@H]1O[C@H](CO)[C@@H](OC(=O)Nc2ccccc2)[C@@H]2OC(=O)[C@H](Cc3ccccc3)C/C=C/C[C@@H](Cc3ccccc3)C(=O)O[C@@H]12
measured-on: Follistatin-related protein 3 (Homo sapiens) (UniProt O95633)
label-value: label 1
--
compound: CC(C)(C)N1CC=CC23O[C@@H]4/C=C\CCCOC(=O)C4[C@H]2C(=O)N(CCCCCCO)[C@@H]3C1=O (some centres not stated)
measured-on: Follistatin-related protein 3 (Homo sapiens) (UniProt O95633)
label-value: label 1
--
compound: COC(=O)[C@@]1(Cc2ccc(OC)cc2)[C@H]2c3cc(C(=O)N(C)C)n(Cc4ccsc4Br)c3C[C@H]2CN1C(=O)c1ccccc1
measured-on: Follistatin-related protein 3 (Homo sapiens) (UniProt O95633)
label-value: label 0
